# System: Candida parapsilosis
# Protocol notes: Antifungal activity against Candida parapsilosis assessed as growth inhibition by microbroth dilution method
# Type: functional
# Experimental parameters: Lodderomyces parapsilosis
Known MIC80 of a selection of molecules
Report as a plain number; the unit µg/mL is understood.

Some molecules with known MIC80 results, for comparison:
Molecule	Quantity unit	MIC80
CN(Cc1cn(Cc2ccccc2C#N)nn1)CC(O)(Cn1cncn1)c1ccc(F)cc1F (centres undefined)	µg/mL	0.0625
CN(Cc1cn(Cc2ccccc2Br)nn1)CC(O)(Cn1cncn1)c1ccc(F)cc1F (centres undefined)	µg/mL	0.25
C[C@@H](c1ncncc1F)[C@](O)(Cn1cncn1)c1ccc(F)cc1F [VORICONAZOLE]	µg/mL	0.25
CN(Cc1cn(Cc2ccc(Cl)cc2)nn1)CC(O)(Cn1cncn1)c1ccc(F)cc1F (centres undefined)	µg/mL	0.25
CCC(C)n1ncn(-c2ccc(N3CCN(c4ccc(OCC5COC(Cn6cncn6)(c6ccc(Cl)cc6Cl)O5)cc4)CC3)cc2)c1=O (centres undefined) [ITRACONAZOLE]	µg/mL	0.0625
CN(Cc1cn(Cc2cccc(Br)c2)nn1)CC(O)(Cn1cncn1)c1ccc(F)cc1F (centres undefined)	µg/mL	0.0625
CN(Cc1cn(Cc2ccccc2Cl)nn1)CC(O)(Cn1cncn1)c1ccc(F)cc1F (centres undefined)	µg/mL	0.25
CN(Cc1cn(Cc2ccc([N+](=O)[O-])cc2)nn1)CC(O)(Cn1cncn1)c1ccc(F)cc1F (centres undefined)	µg/mL	0.25
CN(Cc1cn(Cc2ccc(F)cc2)nn1)CC(O)(Cn1cncn1)c1ccc(F)cc1F (centres undefined)	µg/mL	0.25
CN(Cc1cn(Cc2ccccc2[N+](=O)[O-])nn1)CC(O)(Cn1cncn1)c1ccc(F)cc1F (centres undefined)	µg/mL	0.25

Quickly give me recorded MIC80 for CN(Cc1cn(Cc2ccc(C#N)cc2)nn1)CC(O)(Cn1cncn1)c1ccc(F)cc1F (centres undefined)
0.0156

Quickly give me recorded MIC80 for CN(Cc1cn(Cc2cccc(F)c2)nn1)CC(O)(Cn1cncn1)c1ccc(F)cc1F (centres undefined)
0.5

###

# Test system: Candida tropicalis
# Protocol notes: Antifungal activity against Candida tropicalis assessed as growth inhibition by microbroth dilution method
# Format: functional
Known MIC80 of a selection of compounds
Report as a plain number; the unit µg/mL is understood.

Some compounds with known MIC80 results, for comparison:
Compound	Quantity unit	Value
CN(Cc1cn(Cc2ccccc2Br)nn1)CC(O)(Cn1cncn1)c1ccc(F)cc1F (configuration not stated)	µg/mL	0.25
CN(Cc1cn(Cc2ccccc2Cl)nn1)CC(O)(Cn1cncn1)c1ccc(F)cc1F (configuration not stated)	µg/mL	1
CN(Cc1cn(Cc2cccc(Br)c2)nn1)CC(O)(Cn1cncn1)c1ccc(F)cc1F (configuration not stated)	µg/mL	0.25

Quickly give me recorded MIC80 for CN(Cc1cn(Cc2ccccc2C#N)nn1)CC(O)(Cn1cncn1)c1ccc(F)cc1F (configuration not stated)
0.25

Quickly give me recorded MIC80 for CN(Cc1cn(Cc2ccc(F)cc2)nn1)CC(O)(Cn1cncn1)c1ccc(F)cc1F (configuration not stated)
0.25

Quickly give me recorded MIC80 for C[C@@H]1[C@H](O)[C@@H](C)/C=C/C=C/C=C/C=C/C=C/C=C/C=C/[C@H](O[C@@H]2O[C@H](C)[C@@H](O)[C@H](N)[C@@H]2O)C[C@@H]2O[C@](O)(C[C@@H](O)C[C@@H](O)[C@H](O)CC[C@@H](O)C[C@@H](O)CC(=O)O[C@H]1C)C[C@H](O)[C@H]2C(=O)O
0.25

Quickly give me recorded MIC80 for CN(Cc1cn(Cc2cccc(C#N)c2)nn1)CC(O)(Cn1cncn1)c1ccc(F)cc1F (configuration not stated)
1

Quickly give me recorded MIC80 for CN(Cc1cn(Cc2ccc(C#N)cc2)nn1)CC(O)(Cn1cncn1)c1ccc(F)cc1F (configuration not stated)
0.0625

Quickly give me recorded MIC80 for CN(Cc1cn(Cc2ccccc2[N+](=O)[O-])nn1)CC(O)(Cn1cncn1)c1ccc(F)cc1F (configuration not stated)
1

###

# Tested on: Candida tropicalis
# Protocol notes: Antifungal activity against Candida tropicalis assessed as growth inhibition by microbroth dilution method
# Assay type: functional
Known MIC80 of a selection of molecules
Report as a plain number; the unit µg/mL is understood.

Some molecules with known MIC80 results, for comparison:
Molecule	Quantity unit	MIC80
Cc1ccccc1Cn1cc(CN(C)CC(O)(Cn2cncn2)c2ccc(F)cc2F)nn1 (centres undefined)	µg/mL	0.25
Cc1ccc(Cn2cc(CN(C)CC(O)(Cn3cncn3)c3ccc(F)cc3F)nn2)cc1 (centres undefined)	µg/mL	1
CN(Cc1cn(Cc2ccc([N+](=O)[O-])cc2)nn1)CC(O)(Cn1cncn1)c1ccc(F)cc1F (centres undefined)	µg/mL	0.25
CN(Cc1cn(Cc2ccc(Cl)cc2)nn1)CC(O)(Cn1cncn1)c1ccc(F)cc1F (centres undefined)	µg/mL	1
CN(Cc1cn(Cc2cccc([N+](=O)[O-])c2)nn1)CC(O)(Cn1cncn1)c1ccc(F)cc1F (centres undefined)	µg/mL	0.0625
CN(Cc1cn(Cc2cccc(F)c2)nn1)CC(O)(Cn1cncn1)c1ccc(F)cc1F (centres undefined)	µg/mL	0.5

Now for a further molecule.
Quickly give me recorded MIC80 for CN(Cc1cn(Cc2ccc(Br)cc2)nn1)CC(O)(Cn1cncn1)c1ccc(F)cc1F (centres undefined)
0.25

###

Known MIC80 of a selection of molecules
# Test system: Candida tropicalis
# Protocol notes: Antifungal activity against Candida tropicalis assessed as growth inhibition by microbroth dilution method
# Assay type: functional

Molecule	MIC80
CCC(C)n1ncn(-c2ccc(N3CCN(c4ccc(OCC5COC(Cn6cncn6)(c6ccc(Cl)cc6Cl)O5)cc4)CC3)cc2)c1=O (stereo not drawn) [ITRACONAZOLE]	< 0.0625 µg/mL
CC(=O)N1CCN(c2ccc(OCC3COC(Cn4ccnc4)(c4ccc(Cl)cc4Cl)O3)cc2)CC1 (stereo not drawn) [KETOCONAZOLE]	< 0.125 µg/mL

Quickly give me recorded MIC80 for C[C@@H](c1ncncc1F)[C@](O)(Cn1cncn1)c1ccc(F)cc1F [VORICONAZOLE]
< 0.125 µg/mL
